subject_of_test: human CB2 (Homo sapiens, UniProt P34972)
Sequence (P34972 whole entry): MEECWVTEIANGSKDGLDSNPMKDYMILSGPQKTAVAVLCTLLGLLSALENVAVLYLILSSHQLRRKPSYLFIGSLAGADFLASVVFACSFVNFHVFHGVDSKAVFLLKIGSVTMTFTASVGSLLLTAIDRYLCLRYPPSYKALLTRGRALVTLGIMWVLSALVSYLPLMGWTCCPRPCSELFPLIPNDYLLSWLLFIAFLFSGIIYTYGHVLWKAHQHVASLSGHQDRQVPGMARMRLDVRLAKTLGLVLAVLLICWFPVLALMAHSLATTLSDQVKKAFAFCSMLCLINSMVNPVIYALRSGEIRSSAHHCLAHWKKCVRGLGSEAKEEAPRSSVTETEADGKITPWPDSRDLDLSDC
assay_summary: Cyclic AMP assay (HTRF), CHO cells expressing human CB2
Format: cell-based
recorded_conditions: IP of tested agonist; CHO cells expressing human CB2, forskolin-stimulated cAMP, HTRF; read-out: CB2 (HTRF)
pEC50: −log10 of the molar value.
measurement_kind: pEC50

Reference set, count: 2
- smiles_structure: "CCCCOc1ncccc1-c1nc(-c2ccc(C(F)(F)F)cc2)c[nH]1"
  subject_of_test: "human CB2 (Homo sapiens, UniProt P34972)"
  measurement_kind: "pEC50"
  readout_number: 6.96
- smiles_structure: "CCCCOc1ncccc1-c1nc(-c2ccccc2)c[nH]1"
  subject_of_test: "human CB2 (Homo sapiens, UniProt P34972)"
  measurement_kind: "pEC50"
  readout_number: 6.05

1: CCCCOc1ncccc1-c1nc2ccccc2[nH]1
2: NC(=O)C1CCN(c2ncccc2-c2cc(-c3cccc(F)c3)n[nH]2)CC1
3: CS(=O)(=O)C1CCN(c2ncccc2-c2cc(-c3cccc(F)c3)n[nH]2)CC1
List these items ordered by pEC50, big to small. As an answer, provide the labels arranged in the order called for.
3, 1, 2
(3: 7.17, 1: 6.96, 2: 6.14)

* * *

subject_of_test: human CB2 (Homo sapiens, UniProt P34972)
assay_summary: Cyclic AMP assay (HTRF), CHO cells expressing human CB2
Format: cell-based
recorded_conditions: IP of tested agonist; CHO cells expressing human CB2, forskolin-stimulated cAMP, HTRF; read-out: CB2 (HTRF)
pEC50: −log10 of the molar value.
measurement_kind: pEC50

- smiles_structure: "COCCOc1ncccc1-c1nc(-c2cccc(Cl)c2)no1"
  pEC50: 6.57
- smiles_structure: "CC(C)(C)COc1ncccc1-c1nc(-c2cccc(Cl)c2)no1"
  pEC50: 6.29
- smiles_structure: "N#Cc1ccc(-c2ncccc2-c2nc3cc(Cl)c(Cl)cc3[nH]2)cc1"
  pEC50: 6.59
